Values were extracted from paper PMC9422132.

For each entry below, report its pIC50 value.
Molecular target: NBCe2 (Rattus norvegicus, UniProt Q6RI88)
Sequence (Q6RI88 whole entry): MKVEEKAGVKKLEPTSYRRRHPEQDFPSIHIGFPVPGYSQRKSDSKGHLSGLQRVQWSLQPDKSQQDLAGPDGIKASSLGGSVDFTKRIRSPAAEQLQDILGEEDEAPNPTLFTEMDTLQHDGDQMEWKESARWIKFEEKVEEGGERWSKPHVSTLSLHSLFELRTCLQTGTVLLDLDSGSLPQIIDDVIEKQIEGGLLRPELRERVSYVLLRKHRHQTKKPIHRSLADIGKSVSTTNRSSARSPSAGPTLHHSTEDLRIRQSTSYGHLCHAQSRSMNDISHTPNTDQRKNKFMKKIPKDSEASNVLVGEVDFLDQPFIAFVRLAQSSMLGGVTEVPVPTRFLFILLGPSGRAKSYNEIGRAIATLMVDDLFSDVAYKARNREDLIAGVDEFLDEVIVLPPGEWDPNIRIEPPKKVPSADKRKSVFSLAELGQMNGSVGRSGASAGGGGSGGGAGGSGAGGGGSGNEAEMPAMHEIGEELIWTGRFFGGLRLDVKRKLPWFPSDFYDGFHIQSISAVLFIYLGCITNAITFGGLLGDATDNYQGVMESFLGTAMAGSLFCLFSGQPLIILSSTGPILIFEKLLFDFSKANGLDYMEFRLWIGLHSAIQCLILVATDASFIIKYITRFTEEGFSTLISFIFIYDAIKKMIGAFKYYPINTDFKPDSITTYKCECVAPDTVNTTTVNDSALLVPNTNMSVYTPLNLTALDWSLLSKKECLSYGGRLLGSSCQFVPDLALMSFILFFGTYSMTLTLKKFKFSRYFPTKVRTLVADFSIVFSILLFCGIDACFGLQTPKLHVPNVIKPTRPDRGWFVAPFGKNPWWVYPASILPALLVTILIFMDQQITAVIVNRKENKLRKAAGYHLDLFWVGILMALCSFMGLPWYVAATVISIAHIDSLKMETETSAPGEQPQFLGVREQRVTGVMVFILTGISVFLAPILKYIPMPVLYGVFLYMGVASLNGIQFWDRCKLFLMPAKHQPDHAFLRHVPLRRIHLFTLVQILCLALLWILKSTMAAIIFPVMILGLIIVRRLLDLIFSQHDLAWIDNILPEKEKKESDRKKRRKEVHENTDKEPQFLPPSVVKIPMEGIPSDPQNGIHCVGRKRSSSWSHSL
Assay: two-electrode voltage clamp of rat NBCe2 expressed in Xenopus laevis oocytes
# pIC50 is unitless: minus log10 of the molar concentration; print number only

Given the compound O=S(=O)(O)c1cc(N=C=S)ccc1/C=C/c1ccc(N=C=S)cc1S(=O)(=O)O [DIDS] , write its reported pIC50.
5.35

Given the compound Cc1ccc(CN(Cc2ccc(-c3ccccc3S(=O)(=O)NC#N)cc2)C(=O)c2ccccc2Cl)cc1 [S0859] , write its reported pIC50.
4.97
